Data provenance is patent US20130029961A1.

SYSTEM UNDER TEST: TRPV1 human (Homo sapiens)
Construct: expressed in transfected cells; host or cells: CHO K1 cells
Sequence (Q8NER1 whole entry): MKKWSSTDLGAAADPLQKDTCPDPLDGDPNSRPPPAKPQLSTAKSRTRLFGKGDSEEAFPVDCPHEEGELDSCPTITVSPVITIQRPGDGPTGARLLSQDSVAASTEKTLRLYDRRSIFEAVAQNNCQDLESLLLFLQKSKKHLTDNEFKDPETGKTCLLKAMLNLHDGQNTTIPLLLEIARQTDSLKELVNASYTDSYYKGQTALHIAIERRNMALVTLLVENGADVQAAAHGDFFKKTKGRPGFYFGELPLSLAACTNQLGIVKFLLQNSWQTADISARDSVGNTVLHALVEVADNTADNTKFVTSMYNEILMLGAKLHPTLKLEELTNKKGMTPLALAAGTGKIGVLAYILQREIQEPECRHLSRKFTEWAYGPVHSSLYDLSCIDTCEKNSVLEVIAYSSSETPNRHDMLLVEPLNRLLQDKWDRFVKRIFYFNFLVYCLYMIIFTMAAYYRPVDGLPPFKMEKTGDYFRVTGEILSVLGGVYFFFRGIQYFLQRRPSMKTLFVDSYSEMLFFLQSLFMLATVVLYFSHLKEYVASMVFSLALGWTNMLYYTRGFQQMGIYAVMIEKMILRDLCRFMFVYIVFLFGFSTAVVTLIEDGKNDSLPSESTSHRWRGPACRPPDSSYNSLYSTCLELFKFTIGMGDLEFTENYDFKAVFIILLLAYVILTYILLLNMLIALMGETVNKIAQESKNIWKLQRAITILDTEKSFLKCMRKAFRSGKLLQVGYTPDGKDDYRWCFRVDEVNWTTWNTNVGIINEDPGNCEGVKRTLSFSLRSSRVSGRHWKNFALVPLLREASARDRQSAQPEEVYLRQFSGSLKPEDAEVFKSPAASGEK
EXPERIMENT: Functional FLIPR Ca2+ influx assay on vanilloid receptor 1 (VR1/TRPV1), capsaicin stimulus
Type: cell-based
RUN PARAMETERS: functional (f), vs capsaicin (CAP); Ki from IC50 by Cheng-Prusoff
Binary call on Ki with cut-off 60 nM: strictly below means fulfilled, and equality or higher means not fulfilled.

{"COMPOUND": "CC1CCN(c2nc(C(F)(F)F)ccc2CNC(=O)Cc2cnccn2)CC1", "ASSIGNED CLASS": "not fulfilled"}
{"COMPOUND": "CC1CCN(c2nc(C(F)(F)F)ccc2CNC(=O)Nc2ccc(N3CC[C@H](O)C3)nc2)CC1", "ASSIGNED CLASS": "fulfilled"}
{"COMPOUND": "CC1CCN(c2nc(C(F)(F)F)ccc2CNC(=O)C(C)c2ccc(NC(=O)c3ccccc3)nc2)CC1 (centres unmarked)", "ASSIGNED CLASS": "not fulfilled"}
{"COMPOUND": "CC1CCN(c2nc(C(F)(F)F)ccc2CNC(=O)Nc2ccncc2CO)CC1", "ASSIGNED CLASS": "not fulfilled"}
{"COMPOUND": "COCCNc1ccc(NC(=O)NCc2ccc(C(F)(F)F)nc2N2CCC(C)CC2)cn1", "ASSIGNED CLASS": "fulfilled"}
{"COMPOUND": "CC1CCN(c2nc(C(F)(F)F)ccc2CNC(=O)Nc2ccc(OCCO)nc2)CC1", "ASSIGNED CLASS": "fulfilled"}
{"COMPOUND": "CC1CCN(c2nc(C(F)(F)F)ccc2CNC(=O)C(C)c2ccccn2)CC1 (centres unmarked)", "ASSIGNED CLASS": "fulfilled"}
{"COMPOUND": "COc1cc(NC(=O)NCc2ccc(C(F)(F)F)nc2N2CCC(C)CC2)cnc1N1CCCC1", "ASSIGNED CLASS": "not fulfilled"}

* * *

SYSTEM UNDER TEST: TRPV1 human (Homo sapiens)
Construct: expressed in transfected cells; host or cells: CHO K1 cells
EXPERIMENT: Functional FLIPR Ca2+ influx assay on vanilloid receptor 1 (VR1/TRPV1), capsaicin stimulus
Format: cell-based
RUN PARAMETERS: inhibition at 5 μM compound, capsaicin (CAP); read-out: TRPV1 human (f) CAP, inhibition (as a percentage) @ 5 μM
Binary call on inhibition at 5 µM: Satisfied from 30% upward, Not satisfied beneath that.

{"COMPOUND": "COCCOCc1nc(C(F)(F)F)ccc1CNC(=O)Cc1ccccn1 [compound 24]", "ASSIGNED CLASS": "Not satisfied"}
{"COMPOUND": "CCCCNc1nc(C(F)(F)F)ccc1CNC(=O)Cc1ccccn1 [compound 9]", "ASSIGNED CLASS": "Not satisfied"}
{"COMPOUND": "O=C(Cc1ccccn1)NCc1ccc(C(F)(F)F)nc1N1CCOCC1 [compound 22]", "ASSIGNED CLASS": "Satisfied"}
{"COMPOUND": "COc1cccc(-c2nc(C(F)(F)F)ccc2CNC(=O)Cc2ccccn2)c1 [compound 8]", "ASSIGNED CLASS": "Satisfied"}
{"COMPOUND": "Cc1cccc(-c2nc(C(F)(F)F)ccc2CNC(=O)Cc2ccccn2)c1 [compound 7]", "ASSIGNED CLASS": "Not satisfied"}
{"COMPOUND": "CC(C(=O)NCc1ccc(C(F)(F)F)nc1N1CCOCC1)c1ccc(NS(C)(=O)=O)nc1 (stereo not shown) [compound 95]", "ASSIGNED CLASS": "Satisfied"}
{"COMPOUND": "CC1CCN(c2nc(C(F)(F)F)ccc2CNC(=O)Cc2ncccn2)CC1 [compound 41]", "ASSIGNED CLASS": "Satisfied"}
